# System: Rattus norvegicus
# Procedure details: Inhibition of haloperidol catalepsy by less than 50% in a dose of 80 mg/kg, iv in adult male Wistar rats
# Assay type: functional
Non-standard residues stand in square brackets, D forms with d. Residues, ends and D or L forms follow the SMILES beside them. *: point of attachment. Cha = N[C@@H](CC1CCCCC1)C(=O)O; pGlu = O=C1CC[C@@H](C(=O)O)N1; tBu = CC(C)(C)*
Measurement type: inhibition in vivo at 80 mg/kg (%)

>  <Compound>
C[C@H](NC(=O)[C@@H]1CCC(=O)N1)C(=O)N1CCC[C@H]1C(N)=O ([pGlu]-Ala-Pro-NH2)

>  <Measurement type>
inhibition in vivo at 80 mg/kg

>  <Readout units>
%

>  <Quantitative readout>
0

$$$$
>  <Compound>
CC[C@H](C)[C@H](NC(=O)[C@@H]1CCC(=O)N1)C(=O)N1CCC[C@H]1C(N)=O ([pGlu]-Ile-Pro-NH2)

>  <Measurement type>
inhibition in vivo at 80 mg/kg

>  <Readout units>
%

>  <Quantitative readout>
10

$$$$
>  <Compound>
CC(C)C[C@@H](NC(=O)[C@H]1CCC(=O)N1)C(=O)N1CCC[C@@H]1C(=O)NCCN(C)C

>  <Measurement type>
inhibition in vivo at 80 mg/kg

>  <Readout units>
%

>  <Quantitative readout>
10

$$$$
>  <Compound>
NC(=O)[C@@H]1CCCN1C(=O)[C@H](Cc1ccccc1)NC(=O)[C@@H]1CCC(=O)N1 ([pGlu]-Phe-Pro-NH2)

>  <Measurement type>
inhibition in vivo at 80 mg/kg

>  <Readout units>
%

>  <Quantitative readout>
40

$$$$
>  <Compound>
CSCC[C@H](NC(=O)[C@@H]1CCC(=O)N1)C(=O)N1CCC[C@H]1C(N)=O ([pGlu]-Met-Pro-NH2)

>  <Measurement type>
inhibition in vivo at 80 mg/kg

>  <Readout units>
%

>  <Quantitative readout>
40

$$$$
>  <Compound>
CC(C)(C)OC[C@H](NC(=O)[C@@H]1CCC(=O)N1)C(=O)N1CCC[C@H]1C(N)=O ([pGlu]-Ser(tBu)-Pro-NH2)

>  <Measurement type>
inhibition in vivo at 80 mg/kg

>  <Readout units>
%

>  <Quantitative readout>
0

$$$$
>  <Compound>
CCCCCCCC[C@H](NC(=O)[C@@H]1CCC(=O)N1)C(=O)N1CCC[C@H]1C(N)=O

>  <Measurement type>
inhibition in vivo at 80 mg/kg

>  <Readout units>
%

>  <Quantitative readout>
0

$$$$
>  <Compound>
CC(C)C[C@@H](NC(=O)[C@H]1CCC(=O)N1)C(=O)N1CCCC1

>  <Measurement type>
inhibition in vivo at 80 mg/kg

>  <Readout units>
%

>  <Quantitative readout>
20

$$$$
>  <Compound>
NC(=O)[C@@H]1CCCN1C(=O)[C@H](Cc1c[nH]cn1)NC(=O)[C@@H]1CCC(=O)N1 [PROTIRELIN]

>  <Measurement type>
inhibition in vivo at 80 mg/kg

>  <Readout units>
%

>  <Quantitative readout>
40

$$$$
>  <Compound>
CC(C)C[C@@H](NC(=O)[C@H]1CCC(=O)N1)C(=O)N1CCC[C@@H]1C(=O)O

>  <Measurement type>
inhibition in vivo at 80 mg/kg

>  <Readout units>
%

>  <Quantitative readout>
0

$$$$
>  <Compound>
NC(=O)[C@@H]1CCCN1C(=O)CNC(=O)[C@@H]1CCC(=O)N1 ([pGlu]-Gly-Pro-NH2)

>  <Measurement type>
inhibition in vivo at 80 mg/kg

>  <Readout units>
%

>  <Quantitative readout>
10

$$$$
>  <Compound>
NC(=O)[C@@H]1CCCN1C(=O)[C@H](CC1CCCCC1)NC(=O)[C@@H]1CCC(=O)N1 ([pGlu]-[Cha]-Pro-NH2)

>  <Measurement type>
inhibition in vivo at 80 mg/kg

>  <Readout units>
%

>  <Quantitative readout>
20

$$$$
>  <Compound>
COC(=O)[C@H]1CCCN1C(=O)[C@@H](CC(C)C)NC(=O)[C@H]1CCC(=O)N1

>  <Measurement type>
inhibition in vivo at 80 mg/kg

>  <Readout units>
%

>  <Quantitative readout>
0

$$$$
>  <Compound>
CCCCCCCCCCNC(=O)[C@H]1CCCN1C(=O)[C@@H](CC(C)C)NC(=O)[C@H]1CCC(=O)N1

>  <Measurement type>
inhibition in vivo at 80 mg/kg

>  <Readout units>
%

>  <Quantitative readout>
10

$$$$
